Biological target: recombinant human KLK5 (human) (UniProt Q9Y337)
Sequence (Q9Y337 67-293): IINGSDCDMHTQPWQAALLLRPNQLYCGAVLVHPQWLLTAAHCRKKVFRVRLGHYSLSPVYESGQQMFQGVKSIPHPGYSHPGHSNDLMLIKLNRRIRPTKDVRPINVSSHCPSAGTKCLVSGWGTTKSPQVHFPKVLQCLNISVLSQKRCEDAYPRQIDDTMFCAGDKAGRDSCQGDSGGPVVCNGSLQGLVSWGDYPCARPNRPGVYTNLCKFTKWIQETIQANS
Experiment: Kiapp as the y-intercept of the line of IC50 (nM) versus KLK5 (nM), Z-VPR-pNA
quantity.name: pKi
pKi is defined as minus the log10 of a concentration measured in mol/L.

For 9B6 (antibody, V domains shown) VH: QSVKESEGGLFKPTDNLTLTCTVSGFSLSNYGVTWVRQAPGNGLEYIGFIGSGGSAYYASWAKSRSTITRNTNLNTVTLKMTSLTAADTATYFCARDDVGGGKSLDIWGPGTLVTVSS VL: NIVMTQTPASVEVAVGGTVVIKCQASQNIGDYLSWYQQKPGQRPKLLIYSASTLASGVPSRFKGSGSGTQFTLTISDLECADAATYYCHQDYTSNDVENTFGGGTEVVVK the binder record lists pKi as 9.78
